Recorded percent of parent by entry
B1: MKP5 catalytic domain (MKP5-CD, residues 320-467) [human] / GST-JNK1 (wild type) [human] (parent complex)
chain 1: AELTPILPFLFLGNEQDAQDLDTMQRLNIGYVINVTTHLPLYHYEKGLFNYKRLPATDSNKQNLRQYFEEAFEFIEEAHQCGKGLLIHCQAGVSRSATIVIAYLMKHTRMTMTDAYKFVKGKRPIISPNLNFMGQLLEFEEDLNNGVT
chain 2: MSRSKRDNNFYSVEIGDSTFTVLKRYQNLKPIGSGAQGIVCAAYDAILERNVAIKKLSRPFQNQTHAKRAYRELVLMKCVNHKNIIGLLNVFTPQKSLEEFQDVYIVMELMDANLCQVIQMELDHERMSYLLYQMLCGIKHLHSAGIIHRDLKPSNIVVKSDCTLKILDFGLARTAGTSFMMTPYVVTRYYRAPEVILGMGYKENVDIWSVGCIMGEMIKGGVLFPGTDHIDQWNKVIEQLGTPCPEFMKKLQPTVRTYVENRPKYAGYSFEKLFPDVLFPADSEHNKLKASQARDLLSKMLVIDASKRISVDEALQHPYINVWYDPSEAEAPPPKIPDKQLDEREHTIEEWKELIYKEVMDLLE

# Variants of: B1
# PROCEDURE TEXT: GST pull-down; parent: 100; read off a plot

// below: answered variants
Asked: Which percent of parent value belongs to chain 2 Q253A ?
Given back: ~67 % of wild-type JNK1

Asked: Which percent of parent value belongs to chain 2 H230D ?
Given back: ~98 % of wild-type JNK1

Asked: Which percent of parent value belongs to chain 2 I231D ?
Given back: ~28 % of wild-type JNK1

Asked: Which percent of parent value belongs to chain 2 R263A ?
Given back: ~98 % of wild-type JNK1

---
Asked: Which percent of parent value belongs to chain 2 T255A ?
Given back: ~43 % of wild-type JNK1

Asked: Which percent of parent value belongs to chain 2 T228A ?
Given back: ~88 % of wild-type JNK1

Asked: Which percent of parent value belongs to chain 2 I197D ?
Given back: ~49 % of wild-type JNK1
